- Method summary: Photostability testing under illumination of 4500 Lx of ingredient and 1% premix (HPLC)
- Type: physicochemical
- Condition set: 4500 Lx; 1% Premix of an ingredient (corncob meal); Day 10

Molecule: CCCC(=O)OC1=C(CCC(C)C)C(=O)C(CCC(C)C)(CCC(C)C)C(O)=C1C(=O)C(C)C [hexahydro-colupulone mono-butyrate]
Units: %
Residual amount of active ingredient: 98.08
--
Molecule: CC(=O)OC1=C(CCC(C)C)C(=O)C(CCC(C)C)(CCC(C)C)C(O)=C1C(=O)C(C)C [hexahydro-colupulone mono-acetate, Hexahydro-Colupulone Mono-Acetate]
Units: %
Residual amount of active ingredient: 98.82
--
Molecule: CCC(=O)OC1=C(CCC(C)C)C(=O)C(CCC(C)C)(CCC(C)C)C(O)=C1C(=O)C(C)C [hexahydro-colupulone mono-propionate]
Units: %
Residual amount of active ingredient: 98.10
--
Molecule: CC(C)CCC1=C(O)C(C(=O)C(C)C)=C(O)C(CCC(C)C)(CCC(C)C)C1=O [hexahydro-colupulone, reference compound]
Units: %
Residual amount of active ingredient: 83.62

----------
- Method summary: Thermal stability testing at 60° C. of ingredient and 1% premix (HPLC)
- Assay type: physicochemical
- Condition set: Ingredient, Day 10
- Description: Preparation of a sample of 1% premix of an ingredient: 1 g of an ingredient was respectively weighed out and evenly mixed with 99 g of corncob meal in a mixer to give a sample of 1% premix of an ingredient for testing. […] 25.0 mg of an ingredient was accurately weighed out and dissolved in an appropriate amount of methanol by ultrasonication. […] Between the concentration of a sample and the response value of HPLC peak area thereof, the linearity was adjusted and detected to give a standard curve. […]

Compound: CC(=O)OC1=C(CCC(C)C)C(=O)C(CCC(C)C)(CCC(C)C)C(O)=C1C(=O)C(C)C [hexahydro-colupulone mono-acetate, Hexahydro-Colupulone Mono-Acetate]
Residual amount of active ingredient / %: 99.44

Compound: CC(C)CCC1=C(O)C(C(=O)C(C)C)=C(O)C(CCC(C)C)(CCC(C)C)C1=O [hexahydro-colupulone, reference compound]
Residual amount of active ingredient / %: 99.10

Compound: CCCC(=O)OC1=C(CCC(C)C)C(=O)C(CCC(C)C)(CCC(C)C)C(O)=C1C(=O)C(C)C [hexahydro-colupulone mono-butyrate]
Residual amount of active ingredient / %: 99.64

Compound: CCC(=O)OC1=C(CCC(C)C)C(=O)C(CCC(C)C)(CCC(C)C)C(O)=C1C(=O)C(C)C [hexahydro-colupulone mono-propionate]
Residual amount of active ingredient / %: 99.26

----------
- Method summary: Photostability testing under illumination of 4500 Lx of ingredient and 1% premix (HPLC)
- Assay type: physicochemical
- Condition set: 4500 Lx; Ingredient; Day 10

Compound: CC(=O)OC1=C(CCC(C)C)C(=O)C(CCC(C)C)(CCC(C)C)C(O)=C1C(=O)C(C)C [hexahydro-colupulone mono-acetate, Hexahydro-Colupulone Mono-Acetate]
Units: %
Residual amount of active ingredient: 98.31
--
Compound: CC(C)CCC1=C(O)C(C(=O)C(C)C)=C(O)C(CCC(C)C)(CCC(C)C)C1=O [hexahydro-colupulone, reference compound]
Units: %
Residual amount of active ingredient: 85.66
--
Compound: CCCC(=O)OC1=C(CCC(C)C)C(=O)C(CCC(C)C)(CCC(C)C)C(O)=C1C(=O)C(C)C [hexahydro-colupulone mono-butyrate]
Units: %
Residual amount of active ingredient: 99.10
--
Compound: CCC(=O)OC1=C(CCC(C)C)C(=O)C(CCC(C)C)(CCC(C)C)C(O)=C1C(=O)C(C)C [hexahydro-colupulone mono-propionate]
Units: %
Residual amount of active ingredient: 98.70

----------
- Method summary: Long-term stability in feeds at room temperature (25° C.±2° C., RH 60%±10%; HPLC)
- Assay type: physicochemical
- Condition set: 100 ppm in creep feed for piglets from CP FEED; Day 15
- Excerpt: Feeds: ZUSF's premixed feed (A mixture of crushed Feed A and crushed Feed B at a weight ratio of 2:1, wherein Feed A was a 5.33% multi-premixed feed for piglets from ZUSF's Hao-Ru-Zhen-Jing, and B was a 2.67% multi-premixed feed for piglets from ZUSF's Hao-Ru-Zhen-Jing); creep feed for piglets from CP FEED; INSIGHTER's feed for broiler; 4% premixed feed from GUANGDONG CO-POWER. […]
This listing pairs compounds with measured Residual amount of active ingredient.

Compound: CCC(=O)OC1=C(CCC(C)C)C(=O)C(CCC(C)C)(CCC(C)C)C(O)=C1C(=O)C(C)C [hexahydro-colupulone mono-propionate]
Units: %
Residual amount of active ingredient: 100.97

Compound: CC(=O)OC1=C(CCC(C)C)C(=O)C(CCC(C)C)(CCC(C)C)C(O)=C1C(=O)C(C)C [hexahydro-colupulone mono-acetate, Hexahydro-Colupulone Mono-Acetate]
Units: %
Residual amount of active ingredient: 96.27

Compound: CCCC(=O)OC1=C(CCC(C)C)C(=O)C(CCC(C)C)(CCC(C)C)C(O)=C1C(=O)C(C)C [hexahydro-colupulone mono-butyrate]
Units: %
Residual amount of active ingredient: 96.62

Compound: CC(C)CCC1=C(O)C(C(=O)C(C)C)=C(O)C(CCC(C)C)(CCC(C)C)C1=O [hexahydro-colupulone, reference compound]
Units: %
Residual amount of active ingredient: 96.93

----------
- Method summary: Long-term stability in feeds at room temperature (25° C.±2° C., RH 60%±10%; HPLC)
- Format: physicochemical
- Condition set: 100 ppm in creep feed for piglets from CP FEED; Day 5
This listing pairs compounds with measured Residual amount of active ingredient.
Observation type: Residual amount of active ingredient

Compound: CCCC(=O)OC1=C(CCC(C)C)C(=O)C(CCC(C)C)(CCC(C)C)C(O)=C1C(=O)C(C)C [hexahydro-colupulone mono-butyrate]
Observation type: Residual amount of active ingredient
Result: 98.19%
--
Compound: CC(C)CCC1=C(O)C(C(=O)C(C)C)=C(O)C(CCC(C)C)(CCC(C)C)C1=O [hexahydro-colupulone, reference compound]
Observation type: Residual amount of active ingredient
Result: 98.28%
--
Compound: CC(=O)OC1=C(CCC(C)C)C(=O)C(CCC(C)C)(CCC(C)C)C(O)=C1C(=O)C(C)C [hexahydro-colupulone mono-acetate, Hexahydro-Colupulone Mono-Acetate]
Observation type: Residual amount of active ingredient
Result: 97.69%
--
Compound: CCC(=O)OC1=C(CCC(C)C)C(=O)C(CCC(C)C)(CCC(C)C)C(O)=C1C(=O)C(C)C [hexahydro-colupulone mono-propionate]
Observation type: Residual amount of active ingredient
Result: 100.54%

----------
- Method summary: Long-term stability in feeds at room temperature (25° C.±2° C., RH 60%±10%; HPLC)
- Format: physicochemical
- Condition set: 100 ppm in creep feed for piglets from CP FEED; Day 30

Compound: CCC(=O)OC1=C(CCC(C)C)C(=O)C(CCC(C)C)(CCC(C)C)C(O)=C1C(=O)C(C)C [hexahydro-colupulone mono-propionate]
Residual amount of active ingredient, %: 97.62

Compound: CC(C)CCC1=C(O)C(C(=O)C(C)C)=C(O)C(CCC(C)C)(CCC(C)C)C1=O [hexahydro-colupulone, reference compound]
Residual amount of active ingredient, %: 93.07

Compound: CC(=O)OC1=C(CCC(C)C)C(=O)C(CCC(C)C)(CCC(C)C)C(O)=C1C(=O)C(C)C [hexahydro-colupulone mono-acetate, Hexahydro-Colupulone Mono-Acetate]
Residual amount of active ingredient, %: 96.22

Compound: CCCC(=O)OC1=C(CCC(C)C)C(=O)C(CCC(C)C)(CCC(C)C)C(O)=C1C(=O)C(C)C [hexahydro-colupulone mono-butyrate]
Residual amount of active ingredient, %: 95.70

----------
This listing pairs molecules with measured Residual amount of active ingredient.
- Method summary: Long-term stability in feeds at room temperature (25° C.±2° C., RH 60%±10%; HPLC)
- Assay type: physicochemical
- Condition set: 100 ppm in creep feed for piglets from CP FEED; Day 90
- Text: Feeds: ZUSF's premixed feed (A mixture of crushed Feed A and crushed Feed B at a weight ratio of 2:1, wherein Feed A was a 5.33% multi-premixed feed for piglets from ZUSF's Hao-Ru-Zhen-Jing, and B was a 2.67% multi-premixed feed for piglets from ZUSF's Hao-Ru-Zhen-Jing); creep feed for piglets from CP FEED; INSIGHTER's feed for broiler; 4% premixed feed from GUANGDONG CO-POWER. […]
Observation type: Residual amount of active ingredient (%)

Molecule: CCCC(=O)OC1=C(CCC(C)C)C(=O)C(CCC(C)C)(CCC(C)C)C(O)=C1C(=O)C(C)C [hexahydro-colupulone mono-butyrate]
Numeric readout: 95.77
--
Molecule: CC(=O)OC1=C(CCC(C)C)C(=O)C(CCC(C)C)(CCC(C)C)C(O)=C1C(=O)C(C)C [hexahydro-colupulone mono-acetate, Hexahydro-Colupulone Mono-Acetate]
Numeric readout: 95.08
--
Molecule: CC(C)CCC1=C(O)C(C(=O)C(C)C)=C(O)C(CCC(C)C)(CCC(C)C)C1=O [hexahydro-colupulone, reference compound]
Numeric readout: 68.28
--
Molecule: CCC(=O)OC1=C(CCC(C)C)C(=O)C(CCC(C)C)(CCC(C)C)C(O)=C1C(=O)C(C)C [hexahydro-colupulone mono-propionate]
Numeric readout: 96.99
